# Tested on: P-gp
# assay details: Bidirectional permeability assay in Caco-2
# Type: in vitro ADME, human
# condition info: human, pH 7.4, with Zosuqidar (5 µM), with P-gp inhibitor Zosuqidar (5 µM)
endpoint name: efflux ratio at 10 µM
Answer as a number with no unit attached.

Please report efflux ratio at 10 µM with P-gp for item CC(C)c1nc(N(C)S(C)(=O)=O)nc(-c2ccc(F)cc2)c1/C=C/[C@@H](O)C[C@@H](O)CC(=O)O .
19

----------
# assay details: Intestinal first-pass availability in Caco-2
# Assay type: in vitro ADME, human
# condition info: human, Caco-2, Caco-2; 10 µM apical; with CYP3A4 inhibitor CYP3cide (1 µM); read-out: Recovery in basal/receiver compartment after 24 h
endpoint name: recovery at 24 h, 10 µM (%)
Record the value in %, omitting the unit from your answer.

Complete the entry with recovery at 24 h, 10 µM for Cc1ncc2n1-c1ccc(Cl)cc1C(c1ccccc1F)=NC2
87.9

----------
# assay details: Intestinal first-pass availability in Caco-2
# Format: in vitro ADME, human
# condition info: human, Caco-2, Caco-2; 10 µM apical; no inhibitor; read-out: Recovery in basal/receiver compartment after 24 h
# Protocol: Compounds were diluted in culture media to a final concentration of 10 µM and added to the apical (donor) compartment (total volume: 100 µL for EpiIntestinal and 200 µL for Caco-2). […] Compound concentrations in the samples were determined by HPLC-MS/MS (Section 2.3). GI first-pass availability of the tested compounds was expressed as fraction (%) of the total amount of a compound added to the donor compartment recovered in the receiver compartment.
endpoint name: recovery at 24 h, 10 µM (%)
Record the value in %, omitting the unit from your answer.

Complete the entry with recovery at 24 h, 10 µM for Cc1ncc2n1-c1ccc(Cl)cc1C(c1ccccc1F)=NC2
81

----------
# assay details: Bidirectional permeability assay in Caco-2
# Type: in vitro ADME, human
# condition info: human, pH 7.4, 10 µM, no inhibitor, mean of duplicates
endpoint name: Papp A→B at 10 µM (×10⁻⁶ cm/s)
Record the value in ×10⁻⁶ cm/s, omitting the unit from your answer.

Complete the entry with Papp A→B at 10 µM for CC(C)c1nc(N(C)S(C)(=O)=O)nc(-c2ccc(F)cc2)c1/C=C/[C@@H](O)C[C@@H](O)CC(=O)O
0.3

----------
Listing of recorded recovery at 24 h, 10 µM by entry.
# assay details: Intestinal first-pass availability in EpiIntestinal microtissues
# Type: in vitro ADME, human
# condition info: human, EpiIntestinal microtissues, 10 µM apical, GI firstpass availability, read-out: Recovery in Basal Comp. @ 24h (%)
Record the value in %, omitting the unit from your answer.

Before answering, review these 2 worked examples.
CC(C)c1c(C(=O)Nc2ccccc2)c(-c2ccccc2)c(-c2ccc(F)cc2)n1CC[C@@H](O)C[C@@H](O)CC(=O)O [Atorvastatin] = 43
CC(C)c1nc(N(C)S(C)(=O)=O)nc(-c2ccc(F)cc2)c1/C=C/[C@@H](O)C[C@@H](O)CC(=O)O [Rosuvastatin] = 30

Complete the entry with recovery at 24 h, 10 µM for CCc1c2c(nc3ccc(OC(=O)N4CCC(N5CCCCC5)CC4)cc13)-c1cc3c(c(=O)n1C2)COC(=O)[C@]3(O)CC [Irinotecan]
62

Complete the entry with recovery at 24 h, 10 µM for CC(C)(C)NC(=O)[C@@H]1C[C@@H]2CCCC[C@@H]2CN1C[C@@H](O)[C@H](Cc1ccccc1)NC(=O)[C@H](CC(N)=O)NC(=O)c1ccc2ccccc2n1 [Saquinavir]
18

Complete the entry with recovery at 24 h, 10 µM for O=C1CC2(CCCC2)CC(=O)N1CCCCN1CCN(c2ncccn2)CC1 [Buspirone]
60

----------
# assay details: Intestinal first-pass availability in EpiIntestinal microtissues
# Type: in vitro ADME, human
# condition info: human, EpiIntestinal microtissues, 10 µM apical, GI firstpass availability, read-out: Recovery in Basal Comp. @ 24h (%)
endpoint name: recovery at 24 h, 10 µM (%)
Record the value in %, omitting the unit from your answer.

Before answering, review these 3 worked examples.
CCOC(=O)C1=C(C)NC(C)=C(C(=O)OC)C1c1cccc(Cl)c1Cl (stereo not shown) = 47
CC(C)NCC(O)COc1ccc(CC(N)=O)cc1 (stereo not shown) = 86
Cc1ncc2n1-c1ccc(Cl)cc1C(c1ccccc1F)=NC2 = 47

Complete the entry with recovery at 24 h, 10 µM for CC(C)(C)NC(=O)[C@@H]1CN(Cc2cccnc2)CCN1C[C@@H](O)C[C@@H](Cc1ccccc1)C(=O)N[C@H]1c2ccccc2C[C@H]1O
53

----------
# Tested on: BCRP
# assay details: Bidirectional permeability assay in Caco-2
# Format: in vitro ADME, human
# condition info: human, pH 7.4, with Ko-143 (3 µM), with BCRP inhibitor Ko-143 (3 µM)
endpoint name: efflux ratio at 10 µM
Answer as a number with no unit attached.

Complete the entry with efflux ratio at 10 µM for CC(C)c1nc(N(C)S(C)(=O)=O)nc(-c2ccc(F)cc2)c1/C=C/[C@@H](O)C[C@@H](O)CC(=O)O [Rosuvastatin]
5.5

----------
# assay details: in vitro
# condition info: human, plasma
endpoint name: blood plasma ratio
Answer as a number with no unit attached.

Complete the entry with blood plasma ratio for Cc1ncc2n1-c1ccc(Cl)cc1C(c1ccccc1F)=NC2
0.64

----------
# assay details: Intestinal first-pass availability in EpiIntestinal microtissues
# Type: in vitro ADME, human
# condition info: human, EpiIntestinal microtissues, 10 µM apical, no inhibitor, read-out: Recovery in basal/receiver compartment after 24 h
endpoint name: recovery at 24 h, 10 µM (%)
Record the value in %, omitting the unit from your answer.

Complete the entry with recovery at 24 h, 10 µM for Cc1ncc2n1-c1ccc(Cl)cc1C(c1ccccc1F)=NC2
46.7

----------
# assay details: Clinical pharmacokinetic data and calculated Fa × Fg in human
# Assay type: in vivo
# condition info: calculated from clinical pharmacokinetic data (Section 2.8, Table 2)
endpoint name: Fa × Fg in Human (%)

Before answering, review these 5 worked examples.
CCN(CC)CC#CCOC(=O)C(O)(c1ccccc1)C1CCCCC1 (stereo not drawn) = 9%
Cc1ncc2n1-c1ccc(Cl)cc1C(c1ccccc1F)=NC2 = 59%
CC(C)(C)NC(=O)[C@@H]1CN(Cc2cccnc2)CCN1C[C@@H](O)C[C@@H](Cc1ccccc1)C(=O)N[C@H]1c2ccccc2C[C@H]1O = 100%
CC(C)NCC(O)COc1ccc(CC(N)=O)cc1 (stereo not drawn) = 50%
O=C1CC2(CCCC2)CC(=O)N1CCCCN1CCN(c2ncccn2)CC1 = 70%

Complete the entry with Fa × Fg in Human (%) for CC(C)(C)NC(=O)[C@@H]1C[C@@H]2CCCC[C@@H]2CN1C[C@@H](O)[C@H](Cc1ccccc1)NC(=O)[C@H](CC(N)=O)NC(=O)c1ccc2ccccc2n1
25%

----------
# assay details: Bidirectional permeability assay in Caco-2
# Type: in vitro ADME, human
# condition info: human, pH 7.4, Papp,BA/Papp,AB, no inhibitor, mean of duplicates
endpoint name: efflux ratio at 10 µM
Answer as a number with no unit attached.

Complete the entry with efflux ratio at 10 µM for CC(C)c1nc(N(C)S(C)(=O)=O)nc(-c2ccc(F)cc2)c1/C=C/[C@@H](O)C[C@@H](O)CC(=O)O [Rosuvastatin]
21

----------
# assay details: in vitro
# condition info: human, blood
endpoint name: blood plasma ratio
Answer as a number with no unit attached.

Complete the entry with blood plasma ratio for CC(C)c1nc(N(C)S(C)(=O)=O)nc(-c2ccc(F)cc2)c1/C=C/[C@@H](O)C[C@@H](O)CC(=O)O
0.75

Where do the numbers come from? From paper PMC7284918.
